System: SK-OV-3 ovarian
ASSAY_NOTES: NCI-60 one-dose screen, 48 h (100 = growth as untreated, 0 = no growth, -100 = all killed)
ASSAY_SETUP: 10 µM unless noted
This is part of a sample that, as a whole, favours compounds with a hit. Of some 83,000 tested, about 20% had one in any assay.
For each record, write down the corresponding growth.
One number for each entry, in %.

CCN1CCN(c2nc(NNC(=O)Cc3ccccc3)nc(N3CCN(C(c4ccccc4)c4ccccc4)CC3)n2)CC1; 114

Dear reader, for each entry below, please note its growth.
1. CC(C)=CCNc1ncnc2c1ncn2C1OC(COP(=O)(O)O)C(O)C1O (centres undefined)
2. c1ccc(CN=C(NCc2ccccc2)NCc2ccccc2)cc1

1: 12.9; 2: 73.5

Dear reader, for each entry below, please note its growth.
1. Cc1nn(-c2ccccc2)c2nc(N)c(C3=NCCO3)nc12
2. CCOc1cc(/C=C/C(=O)C(C(=O)/C=C/c2ccc(OC(=O)CNc3nnc(C)s3)c(OCC)c2)C(=O)CNc2nnc(C)s2)ccc1OC(=O)CNc1nnc(C)s1
3. COc1ccc(C(=O)/C=C/c2cccc(Nc3ccnc4cc(Cl)ccc34)c2)cc1

1: 94.2; 2: 43.6; 3: 64

----------
Tested on: CCRF-CEM leukemia
ASSAY_NOTES: NCI-60 one-dose screen, 48 h
ASSAY_SETUP: 10 µM unless noted
The panel holds about 83,000 compounds, 20% with a hit somewhere; the sample as a whole holds those more often. Calls of active or inactive are those of the source. Rule for the calls: active = growth percent below 10; inactive = the rest.
Bench note: report the call from yes = active, no = inactive

Reference set (4 entries):
COc1ccccc1-n1c(-c2ccc(O)cc2C)cn2c3c(=O)[nH]c(=O)n(C)c3nc12; no
COc1cc(-c2nc3nc4sc(C)c(C)c4c(=O)n3[nH]2)cc(OC)c1OC; no
O=C1C2C(C(=O)N1CC[Se][Se]CCN1C(=O)C3C(C1=O)[C@H]1C=C[C@@H]3C1)[C@H]1C=C[C@@H]2C1 (stereo not given in full); yes
CCNCCCn1c2c(c3ccc(F)cc3c1=O)C(=O)c1cc(OC)cnc1-2; yes

Tell me the assay call for `OCc1n(Cc2ccc3ccccc3c2)cc[n+]1Cc1ccc2ccccc2c1` please.
no

----------
Tested on: CAKI-1 renal
ASSAY_NOTES: NCI-60 one-dose screen, 48 h (100 = growth as untreated, 0 = no growth, -100 = all killed)
ASSAY_SETUP: 10 µM unless noted
About 83,000 compounds went through this panel and 20% of them were active in at least one assay; those are over-represented in the sample as a whole. Activity calls are given as the source filed them. The calls were made as follows: active = growth percent below 10; inactive = the rest.
For each record, write down the corresponding growth.

Dear reader, for each entry below, please note its growth.
1. COc1cc(NC(C)CCCN)c2nc(C)ccc2c1Oc1ccc(F)cc1 (configuration not stated)
2. CS(=O)(=O)N1CCN(Cc2cc3nc(-c4cccc5[nH]ncc45)nc(N4CCOCC4)c3s2)CC1 (tested in a mixture with another compound)

["75.9% (inactive)", "-1.96% (active)"]

Dear reader, for each entry below, please note its growth.
1. CCOC(=O)CCC(=O)O[C@H]1[C@H](O[C@@H]2[C@@H](C)[C@H](O[C@H]3C[C@@](C)(OC)[C@@H](O)[C@H](C)O3)[C@@H](C)C(=O)O[C@H](CC)[C@@](C)(O)[C@H](O)[C@@H](C)C(=O)[C@H](C)C[C@@]2(C)O)O[C@H](C)C[C@@H]1N(C)C
2. COc1ccc(N2CCN(CC(=O)N3CCN(c4nnc(-c5ccc(Cl)cc5)c(-c5ccc(Cl)cc5)n4)CC3)CC2)cc1
3. O=c1c2ccccc2c2nccn2c2cc(Cl)ccc12
4. COc1cc(/C=C/C(=O)C(C(=O)/C=C/c2ccc(OC(=O)CCNC34CC5CC(CC(C5)C3)C4)c(OC)c2)C(=O)CCNC23CC4CC(CC(C4)C2)C3)ccc1OC(=O)CCNC12CC3CC(CC(C3)C1)C2 (configuration not stated)
5. CN1CCN(CCCCCN=c2cc3c(=O)n(CCCCCN4CCN(C)CC4)c(=O)c4c(NCCCCCN5CCN(C)CC5)cc5c(O)n(CCCCCN6CCN(C)CC6)c(=O)c2c5c4-3)CC1

1. 93.2% (inactive)
2. 147% (inactive)
3. 75.2% (inactive)
4. 18.6% (inactive)
5. 102% (inactive)

----------
Tested on: MCF7 breast
ASSAY_NOTES: NCI-60 one-dose screen, 48 h (100 = growth as untreated, 0 = no growth, -100 = all killed)
ASSAY_SETUP: 10 µM unless noted
About 83,000 compounds went through this panel and 20% of them were active in at least one assay; those are over-represented in the sample as a whole.
Quick rule: growth of at least 60% means TRUE, below that means FALSE.

Cc1cc2c(cc1C)[n+](Cc1ccc3ccccc3c1)cn2Cc1ccc2ccccc2c1; FALSE

Test whether the compound `CN1CCN(c2nc3scc(-c4ccccc4)c3c(=O)[nH]2)CC1` records growth of 60% or higher.
TRUE

Test whether the compound `CC[N+](CCCCCCCCCC[N+](CC)(c1ccccn1)c1ccccn1)(c1ccccn1)c1ccccn1` records growth of 60% or higher.
FALSE

Test whether the compound `Nc1ccc(N=Nc2ccccc2)cc1[N+](=O)[O-]` records growth of 60% or higher.
FALSE

Test whether the compound `NC(=O)c1cc(Cl)ccc1NC(=O)c1ccccc1-c1ccccc1` records growth of 60% or higher.
FALSE

Test whether the compound `C/C(=C\CCc1ccoc1)CC/C=C(\C)CCCN1CCOCC1` records growth of 60% or higher.
FALSE

Test whether the compound `COc1cccc(/C=N/Nc2nc3ccccc3s2)c1OC` records growth of 60% or higher.
TRUE

----------
System: OVCAR-5 ovarian
ASSAY_NOTES: NCI-60 one-dose screen, 48 h
ASSAY_SETUP: 10 µM unless noted
About 83,000 compounds went through this panel and 20% of them were active in at least one assay; those are over-represented in the sample as a whole. The source made the active and inactive calls. How the source made its calls: active means growth percent below 10; inactive means the rest.
Bench note: report the call from t (active), f (inactive)

Reference set (5 entries):
O=C(/C=C/c1ccc(C(F)(F)F)cc1)c1ccc(Nc2nc(NCCO)nc(NCCO)n2)cc1; f
COC(=O)Nc1ccc2ccc3c(NC(=O)OC)ccc4ccc1c2c43 (tested in a mixture with another compound); f
COC(=O)C1CCN(S(=O)(=O)c2ccc(-c3ccccc3)cc2)CC1; f
CC[C@@H](C)/C=C(C)/C=C/C(=O)c1c(O)c(-c2ccc(O)cc2)cn(OC2CC(=O)CCC(C)OC(=O)CC2O)c1=O (some centres undefined); f
O=Cc1ncc(-c2ccc(C(F)(F)F)cc2)c(NC2CCCCCC2)n1; t

Tell me the assay call for Nc1nc(SCc2cccnc2)c2ncn(C3OC(CO)C(O)C3O)c2n1 (centres undefined) please.
f

Tell me the assay call for `COc1ccc(-c2cc(-c3cccnc3)nc(S(=O)(=O)CC(=O)Nc3ccc(C)cc3)c2C#N)cc1OC` please.
f

Tell me the assay call for `O=C(O)c1ccc(CNS(=O)(=O)c2ccc3ccccc3c2)cc1` please.
f

Tell me the assay call for `CC(C)Sc1nc(-c2ccc(Br)cc2)c(C#N)c(N2CCCCC2)n1` please.
f

----------
Tested on: CAKI-1 renal
ASSAY_NOTES: NCI-60 one-dose screen, 48 h
ASSAY_SETUP: 10 µM unless noted
The panel holds about 83,000 compounds, 20% with a hit somewhere; the sample as a whole holds those more often. Active and inactive are the calls of the source. How the source made its calls: active means growth percent below 10; inactive means the rest.
Bench note: report the call from active, inactive

N#Cc1c(NC(=O)c2ccco2)[n+]([O-])c2cc(Cl)c(Cl)cc2[n+]1[O-]; inactive
CC[C@@H](c1ccc(O)c(O)c1)[C@@H](CC)c1ccc(O)c(O)c1; active
O=C(COc1ccc(/C=C2\Oc3ccc4ccccc4c3C2=O)cc1)c1ccc(Cl)cc1; inactive
CCSCC1CC(O)(c2ccccc2)C(c2ccccc2)C(c2ccc(Cl)cc2)O1 (configuration not stated); active
Cn1cnc([N+](=O)[O-])c1Sc1nc(N)nc2nc[nH]c12; inactive
COC(=O)[C@H](Cc1cn(C)cn1)NC(=O)[C@@H](NC(=O)Nc1cc(C(F)(F)F)cc(C(F)(F)F)c1)C(C)C; active
COc1ccc2c3c(ccc2c1)C(=O)/C(=C\O)CC3; inactive
COc1ccccc1-n1c(-c2ccc(O)cc2C)cn2c3c(=O)[nH]c(=O)n(C)c3nc12; inactive

# next molecule below
Tell me the assay call for `O=C(COc1ccc(/C=C2\Cc3ccccc3C2=O)cc1)c1ccc(Cl)cc1` please.
inactive

----------
System: MDA-MB-231 breast
ASSAY_NOTES: NCI-60 one-dose screen, 48 h
ASSAY_SETUP: 10 µM unless noted
This is part of a sample that, as a whole, favours compounds with a hit. Of some 83,000 tested, about 20% had one in any assay. Active and inactive are the calls of the source. How the source made its calls: active means growth percent below 10; inactive means the rest.
Bench note: report the call from active, inactive

Reference set (3 entries):
O=C(/C=C(\Nc1ccccc1)c1ccccc1)c1cn(-c2ccc([N+](=O)[O-])cc2)nn1; inactive
O=C(NCCNC(=O)Oc1cccc2ccccc12)Oc1cccc2ccccc12; inactive
COC(=O)[C@H](Cc1cn(C)cn1)NC(=O)[C@H](Cc1ccccc1)NC(=O)Nc1cc(C(F)(F)F)cc(C(F)(F)F)c1; active

Tell me the assay call for `C[C@H]1C(=O)N2c3ccccc3[C@@]3(O)C[C@@H](n4cnc5ccccc5c4=O)C(=O)N1[C@@H]23` please.
inactive

Tell me the assay call for `COc1cccc(/C=N/Nc2nc3ccccc3s2)c1OC` please.
inactive

Tell me the assay call for `COc1cc(/C=C/c2cc(/C=C/c3ccc(O)c(OC)c3)n(C(=O)c3ccc(Cl)cc3)n2)ccc1O` please.
inactive

Tell me the assay call for `O=C(c1ccccc1)c1ccc(Oc2ccc([N+](=O)[O-])cc2[N+](=O)[O-])cc1` please.
inactive

Tell me the assay call for `COC(=O)C1CCN(S(=O)(=O)c2ccc(-c3ccccc3)cc2)CC1` please.
inactive

Tell me the assay call for `COc1ccc2c(c1)CC[C@@H]1[C@@H]2CC[C@]2(C)[C@@H](O)C(=O)C[C@@H]12` please.
inactive

Entry source: PubChem BioAssay (NCI)
